Target: phosphodiesterase V (PDE V) (Rattus norvegicus, UniProt O54735)
Construct: Phosphodiesterases I, III and V were isolated from diaphragm kidney cortex of rat
Assay: Inhibitory activity against phosphodiesterase V (method of Thompson and Appleman)
Settings: enzyme isolated from diaphragm kidney cortex of rat
Assay Readout: pIC50
Scale: pIC50 equals -log10([C]), with [C] in mol/L.

CCCc1nn(C)c2c(=S)[nH]c(-c3cc(S(=O)(=O)N4CCN(CCO)CC4)ccc3OCC)nc12
9.40
CCCOc1ccc(S(=O)(=O)N2CCN(C)CC2)cc1-c1nc2c(CCC)nn(C)c2c(=S)[nH]1
9.24
CCCc1nn(C)c2c(=S)[nH]c(-c3cc(S(=O)(=O)N4CCN(C)CC4)ccc3OCC)nc12
9.23
CCCOc1ccc(S(=O)(=O)N2CCN(CCO)CC2)cc1-c1nc2c(CCC)nn(C)c2c(=S)[nH]1
9.34

# evaluate next
Short answer for "CCCc1nn(C)c2c(=S)[nH]c(-c3cc(S(=O)(=O)N4CCNCC4)ccc3OCC)nc12" : pIC50 was 9.21

* * *

Molecular target: phosphodiesterase I (PDE I)
Experiment: Inhibitory activity against phosphodiesterase I (method of Thompson and Appleman)
Conditions: enzyme isolated from diaphragm kidney cortex of rat
API: label(entry) gives 1 (yes) if the entry's IC50 is strictly smaller than 600 nM; on equality or larger values it gives 0 (no).

CCCOc1ccc(S(=O)(=O)N2CCN(CCO)CC2)cc1-c1nc2c(CCC)nn(C)c2c(=S)[nH]1
1 (yes)
CCCc1nn(C)c2c(=S)[nH]c(-c3cc(S(=O)(=O)N4CCNCC4)ccc3OCC)nc12
0 (no)
CCCc1nn(C)c2c(=O)[nH]c(-c3cc(S(=O)(=O)N4CCN(C)CC4)ccc3OCC)nc12 [Sildenafil, reference compound]
0 (no)

Q) I wonder whether "CCCOc1ccc(S(=O)(=O)N2CCN(C)CC2)cc1-c1nc2c(CCC)nn(C)c2c(=S)[nH]1" has IC50 below 600 nM. Can you tell?
A) 0 (no)

Q) I wonder whether "CCCc1nn(C)c2c(=S)[nH]c(-c3cc(S(=O)(=O)N4CCN(C)CC4)ccc3OCC)nc12" has IC50 below 600 nM. Can you tell?
A) 0 (no)

Q) I wonder whether "CCCc1nn(C)c2c(=S)[nH]c(-c3cc(S(=O)(=O)N4CCN(CCO)CC4)ccc3OCC)nc12" has IC50 below 600 nM. Can you tell?
A) 1 (yes)

* * *

Target: phosphodiesterase III (PDE III)
Assay: Inhibitory activity against phosphodiesterase III (method of Thompson and Appleman)
Conditions: enzyme isolated from diaphragm kidney cortex of rat
Reported IC50 by item:
API: value field is a number in nM; no unit string.

Use the examples below as a reference point.
CCCc1nn(C)c2c(=O)[nH]c(-c3cc(S(=O)(=O)N4CCN(C)CC4)ccc3OCC)nc12 [Sildenafil, reference compound]
1750
CCCc1nn(C)c2c(=S)[nH]c(-c3cc(S(=O)(=O)N4CCN(C)CC4)ccc3OCC)nc12 [Example 5]
1250

Case CCCc1nn(C)c2c(=S)[nH]c(-c3cc(S(=O)(=O)N4CCNCC4)ccc3OCC)nc12 [Example 9] , phosphodiesterase III (PDE III), IC50 recorded as 5630

Case CCCc1nn(C)c2c(=S)[nH]c(-c3cc(S(=O)(=O)N4CCN(CCO)CC4)ccc3OCC)nc12 [Example 7] , phosphodiesterase III (PDE III), IC50 recorded as 3020

Case CCCOc1ccc(S(=O)(=O)N2CCN(CCO)CC2)cc1-c1nc2c(CCC)nn(C)c2c(=S)[nH]1 [Example 12] , phosphodiesterase III (PDE III), IC50 recorded as 1080

Case CCCOc1ccc(S(=O)(=O)N2CCN(C)CC2)cc1-c1nc2c(CCC)nn(C)c2c(=S)[nH]1 [Example 10] , phosphodiesterase III (PDE III), IC50 recorded as 1030
